Hello, the source for this data is patent US12692236B2, in case you need it.

- system.name: sigma-2 receptor (Homo sapiens)
- Sequence (Q5BJF2 whole entry, species assumed): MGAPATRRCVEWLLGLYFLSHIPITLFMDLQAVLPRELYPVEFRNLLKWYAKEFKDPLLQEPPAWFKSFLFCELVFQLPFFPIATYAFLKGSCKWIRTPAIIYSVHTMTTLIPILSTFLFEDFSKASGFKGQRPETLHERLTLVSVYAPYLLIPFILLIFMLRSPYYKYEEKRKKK
- assay.details: sigma-2 receptor binding affinity (Ki)
- experimental.conditions: read-out: Ki (nM) Sigma-2
quantity.measured: Ki (nM)

>>> print(df.to_string())
                                   molecule  quantity_measured  assay_value
0  O=C(c1nn(-c2ccccc2)c2c1CC(NCCc1ccc(F)cc1)CC2)N1CCCCC1 (stereo not drawn) [compound 201667]                 Ki           91
1  CCCn1nc(C(=O)N2CCCCC2)c2c1CCC(N1CCN(Cc3ccc(C#N)cc3)CC1)C2 (stereo not drawn) [compound 200641]                 Ki         1100
2  CCCn1nc(C(=O)N2CCCCC2)c2c1CCC(NCc1ccc(N3CCCCC3)cc1)C2 (stereo not drawn) [compound 200647]                 Ki          169
3  CCCn1nc(C(=O)N2CCCCC2)c2c1CCC(NCCNC(=N)N)C2 (stereo not drawn) [compound 200829]                 Ki         2160
4  O=C(c1c2c(nn1-c1ccccc1)CCC(NCc1ccccc1)C2)N1CCCCC1 (stereo not drawn) [compound 201676]                 Ki          139
5  CCCn1nc(C(=O)N(C)C)c2c1CCC(NCCc1ccc(C(F)(F)F)cc1)C2 (stereo not drawn) [compound 200878]                 Ki          595
6  CCCn1nc(C(=O)N2CCCCC2)c2c1CCC(N1CCN(c3ccc([N+](=O)[O-])cc3)CC1)C2 (stereo not drawn) [compound 200709]                 Ki          526
7  CCCn1nc(C(=O)N(C)C)c2c1CCC(NCCc1ccc3c(c1)OCO3)C2 (stereo not drawn) [compound 200876]                 Ki          430
8  C=Cc1ccc(-n2nc3c(c2C(=O)N2CCCCC2)CC(NCCc2ccccc2)CC3)cc1 (stereo not drawn) [compound 201591]                 Ki           32
9  CCCn1nc(C(=O)N2CCCCC2)c2c1CCC(NCCc1cccc(O)c1)C2 (stereo not drawn) [compound 200646]                 Ki          612

(P) CCCn1nc(C(=O)N2CCCCC2)c2c1CCC(NCCc1ccc(O)cc1)C2 (stereo not drawn) [compound 200643]
(Q) NC(=O)c1ccc(-n2nc(C(=O)N3CCCCC3)c3c2CCC(NCCc2ccccc2)C3)cc1 (stereo not drawn) [compound 201243]
(R) CCCn1nc(C(=O)N2CCCCC2)c2c1CCC(NCCCNC)C2 (stereo not drawn) [compound 200820]
Inquiry: Hi! Can you put these in order of Ki, lowest number first? Write out the labels following the order that was asked for.
Reply text: P, Q, R
